- Tested on: Plasmodium falciparum
- assay_explanation: GSK_TCMDC: Inhibition of Plasmodium falciparum 3D7 in whole erythrocytes, using parasite LDH activity as an index of growth.
- Assay type: functional, organism-based
- test_context: Plasmodium falciparum, 3D7
In this scheme, each record receives a class according to its XC50; the ranges are LOW = under 400 nM, MEDIUM = from 400 nM up to 700 nM, HIGH = 700 nM and over

[
  {
    "compound": "COc1cc2c(cc1OC)CN(CCCCNC(=O)c1ccc(NC(=O)c3cc(Cl)cc(Cl)c3)cc1)CC2",
    "answer_label": "HIGH"
  },
  {
    "compound": "COc1cc(C(=O)NC2CCN(Cc3ccccc3)CC2)ccc1-c1cc2cc(Cl)c(Cl)cc2[nH]1",
    "answer_label": "LOW"
  },
  {
    "compound": "CCc1cc2c3c(N)nc(N)nc3ccc2n1C(C)(C)C",
    "answer_label": "LOW"
  },
  {
    "compound": "Nc1nc2c(ncn2OC[C@H]2COP(=O)(O)CO2)c(=O)[nH]1",
    "answer_label": "MEDIUM"
  },
  {
    "compound": "NC(=O)c1cccc(C(=O)Nc2ccc(-c3cccc(-c4nc5cc(C(F)(F)F)ccc5[nH]4)c3)cc2)c1",
    "answer_label": "LOW"
  },
  {
    "compound": "CC(CCCCC(=O)Nc1ccc(CC(C)NCCc2cccc(Cl)c2)cc1)NCCc1cccc(Cl)c1 (stereo not drawn)",
    "answer_label": "HIGH"
  },
  {
    "compound": "CC(CN(C)C)C(=O)Nc1ccc(-c2ccc(-c3nc4ccccc4[nH]3)cc2)cc1 (stereo not drawn)",
    "answer_label": "HIGH"
  },
  {
    "compound": "Cn1c(NC(=O)c2ccc(CNC(=O)c3ccc(O)c(-c4ccc(Cl)c(Cl)c4)c3)cc2)nc2ccccc21",
    "answer_label": "HIGH"
  },
  {
    "compound": "O=C(Nc1cccc2ccccc12)N1CCC(NS(=O)(=O)c2cccc(C(F)(F)F)c2)CC1",
    "answer_label": "HIGH"
  },
  {
    "compound": "O=C(NC1CCN(Cc2ccccc2)CC1)c1ccc(CNC2CCN(Cc3ccccc3)CC2)cc1",
    "answer_label": "HIGH"
  },
  {
    "compound": "O=C(NCCN1CCC(NC(=O)c2ccc(-c3ccccn3)s2)CC1)c1ccc(Cl)c(Cl)c1",
    "answer_label": "HIGH"
  },
  {
    "compound": "Clc1ccc(CNc2nc(NCCc3c[nH]cn3)nc(N3CCCC4CCCCC43)n2)cc1 (stereo not drawn)",
    "answer_label": "MEDIUM"
  },
  {
    "compound": "O=C(Cc1cccc(O)c1)NCC(Cc1ccc(O)cc1)c1ccccc1 (stereo not drawn)",
    "answer_label": "MEDIUM"
  },
  {
    "compound": "CC1CC(C)CN(CCCNc2ccc(C(=O)Nc3ccc(C(F)(F)F)cc3)cc2[N+](=O)[O-])C1 (stereo not drawn)",
    "answer_label": "LOW"
  },
  {
    "compound": "COc1ccc(N2CCN(CCCCNCc3ccc(NC(=O)c4cc(Cl)cc(Cl)c4)cc3)CC2)c(OC)c1",
    "answer_label": "LOW"
  },
  {
    "compound": "Cc1[nH]c2cc(F)ccc2c1C1=CCN(CCCCC2(C)C(=O)Nc3ccccc32)CC1 (stereo not drawn)",
    "answer_label": "LOW"
  },
  {
    "compound": "O=C(Nc1cccc(CN2CCN(Cc3ccc(O)cc3)CC2)c1)c1cc2ccccc2o1",
    "answer_label": "HIGH"
  },
  {
    "compound": "Cc1cc(N[C@@H](Cc2ccccc2)C(=O)NC2CCCC2)nc(NCC2CCCCC2)n1",
    "answer_label": "HIGH"
  },
  {
    "compound": "CCn1ncc2c(N3CCCC3=O)cc(C(=O)N[C@@H](Cc3ccccc3)[C@H](O)CNC(C)(C)c3cccc(C(F)(F)F)c3)cc21",
    "answer_label": "LOW"
  },
  {
    "compound": "O=C(Nc1ccc(Cl)cc1)c1cc(Cl)ccc1NC(=O)C1(c2ccc(Cl)cc2)CCCC1",
    "answer_label": "HIGH"
  },
  {
    "compound": "O=S(=O)(c1ccccc1OC(F)(F)F)C1CC2CCC(C1)N2S(=O)(=O)c1cccc(C(F)(F)F)c1 (stereo not drawn)",
    "answer_label": "MEDIUM"
  },
  {
    "compound": "O=C(N[C@@H](Cc1ccccc1)[C@H](O)CNC1CCOCC1)c1cc(C2CCCC2)cc(N2CCCCS2(=O)=O)c1",
    "answer_label": "LOW"
  },
  {
    "compound": "COCCNCc1cccc(-c2ccccc2CN(C(=O)Nc2ccccc2)C2CCN(Cc3ccccc3)CC2)c1",
    "answer_label": "HIGH"
  },
  {
    "compound": "NC(=O)c1ccc(NC(=O)CN(Cc2ccc(Cl)cc2)S(=O)(=O)c2ccccc2)cc1",
    "answer_label": "MEDIUM"
  },
  {
    "compound": "O=C(Nc1cccc(-c2nn3ccccc3c2-c2ccnc(Nc3ccc(Cc4ccncc4)cc3)n2)c1)c1c(F)cccc1F",
    "answer_label": "LOW"
  },
  {
    "compound": "Clc1ccc(Sc2cncnc2N2CCOCC2)cc1",
    "answer_label": "LOW"
  },
  {
    "compound": "COc1ccc(CN(C)CCCOc2ccc(NC(=O)c3cccc4c(=O)c5cccc(F)c5[nH]c34)cc2)cc1OC",
    "answer_label": "MEDIUM"
  },
  {
    "compound": "CC1(C)CCC(C)(C)c2c1ccc(C1CCN(CCCCNC(=O)c3ccc(-c4ccc(C#N)cc4)cc3)CC1)c2OCC(N)=O",
    "answer_label": "MEDIUM"
  },
  {
    "compound": "c1cc(CNCC2CCN(CC3CCCCC3)CC2)cc(-n2ccnc2)c1",
    "answer_label": "MEDIUM"
  }
]
